These entries and their values trace back to a melting point compilation (Tetko et al.; mined from patent text by program, amines drawn as free bases though some values may be those of a salt).

Reported melting point is given for each of the following compounds.
Test readout: melting point

CCOCc1cnc2c(N)cccc2c1Cl
90 to 93 °C
CONC1=NS(=O)(=O)c2cc(Cl)ccc2N1
> 220 °C
COc1ccc(CN2CC=C(c3cc4ccccc4s3)CC2)cc1
158 to 160 °C
NC(=O)CN1C(=O)COc2cc(F)ccc21
212 to 214 °C
CN(Cc1cccc2c1C(=O)N(C1CCC(=O)NC1=O)C2=O)C(=O)Nc1ccc(Cl)c(Cl)c1 (stereo unspecified)
255 to 257 °C
COC(=O)C(C)(C)Nc1ncc(I)cc1[N+](=O)[O-]
121 to 122 °C
CCOC(=O)c1sc(N2C[C@@H](Cc3ccccc3)NC2=O)nc1C
102 to 103 °C
ON=C1CCC(c2ccccc2)CC1c1ccccc1 (stereo unspecified)
214 to 215 °C
N#Cc1ccc(Oc2ccc(CBr)cc2)cc1C#N
101 to 102 °C
CCOC(=O)c1nc(S)n(-c2ccccc2)c1C(=O)OCC
145 to 146 °C
CC(O)(C(=O)O)c1ccc(-c2ccccc2)c(F)c1 (stereo unspecified)
161 to 163 °C
